Just for reference, patent US20240400654A1 is where these values come from.

// OD450 nm lookup, one value per entry
Target: HRgpA-6H (Porphyromonas gingivalis) (UniProt P28784)
Test: ELISA, coated HRgpA-6H
Form rule: numeric answer, no unit written next to it.

Here are 2 binders together with their reported answers.
KB001 mouse Fab VL T52L (Fab, V domains shown) VH: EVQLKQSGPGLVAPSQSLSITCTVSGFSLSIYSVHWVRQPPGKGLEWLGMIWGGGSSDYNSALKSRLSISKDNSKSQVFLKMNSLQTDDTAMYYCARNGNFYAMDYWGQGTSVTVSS VL: QIVLTQSPAIMSASLGERVTMTCTASSSVSSSFLHWYQQKPGSSPQLWIYSLSNLASGVPARFSGSGSGTSYSLTISSMEAEDAATYYCHQYHHSPYIYTFGGGTKLEIK: 0.769
KB001 mouse Fab VL S53D (Fab, V domains shown) VH: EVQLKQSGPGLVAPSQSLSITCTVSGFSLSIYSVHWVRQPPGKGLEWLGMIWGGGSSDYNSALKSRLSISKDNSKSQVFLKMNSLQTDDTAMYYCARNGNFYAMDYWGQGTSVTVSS VL: QIVLTQSPAIMSASLGERVTMTCTASSSVSSSFLHWYQQKPGSSPQLWIYSTDNLASGVPARFSGSGSGTSYSLTISSMEAEDAATYYCHQYHHSPYIYTFGGGTKLEIK: 0.775

Switching to the query record.
Need OD450 nm, item KB001 mouse Fab VH S61Y (Fab, V domains shown) VH: EVQLKQSGPGLVAPSQSLSITCTVSGFSLSIYSVHWVRQPPGKGLEWLGMIWGGGSSDYNYALKSRLSISKDNSKSQVFLKMNSLQTDDTAMYYCARNGNFYAMDYWGQGTSVTVSS VL: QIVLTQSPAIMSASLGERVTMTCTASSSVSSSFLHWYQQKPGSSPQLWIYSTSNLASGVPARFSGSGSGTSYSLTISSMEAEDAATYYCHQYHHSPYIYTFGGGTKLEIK
0.423
